- protocolText: NCI Yeast Anticancer Drug Screen. Data for the mec2-1 strain (AID 157)
- conditionSummary: S. cerevisiae mec2-1 strain, at 50.0 µM (retest, dose inferred, filed as 5.0), active compounds read high
This is part of a sample that, as a whole, favours compounds with a hit. Of some 79,000 tested, about 15% had one in any assay.
# growth inhibition >= 80% gives 1.0, anything below gives 0.0

| compound | classification |
| --- | --- |
| CCCCCCCCCCCCCCCCCC(=O)NCCO | 0.0 |

[in] Has CC1CP(c2ccccc2)(c2ccccc2)(c2ccccc2)OC1(C(=O)c1ccccc1)c1ccccc1 (stereo unspecified) a recorded growth inhibition greater than or equal to 80%?
[out] 0.0

[in] Has CC(=O)Nc1ccc(S(=O)(=O)N(CCO)CCO)cc1 a recorded growth inhibition greater than or equal to 80%?
[out] 0.0

[in] Has CC(=O)OCC1OC(n2c(C)c(C(C)=O)c(-c3ccco3)c(C#N)c2=S)C(OC(C)=O)C(OC(C)=O)C1OC(C)=O (stereo unspecified) a recorded growth inhibition greater than or equal to 80%?
[out] 0.0

[in] Has O=Cc1cc([N+](=O)[O-])ccc1O.[Eu] a recorded growth inhibition greater than or equal to 80%?
[out] 0.0

[in] Has CCC(C)(C)c1cc(O)c(C(C)(C)CC)cc1O a recorded growth inhibition greater than or equal to 80%?
[out] 0.0

[in] Has CC1=CC(=Nc2ccc(N(C)C)cc2)C=CC1=O a recorded growth inhibition greater than or equal to 80%?
[out] 0.0

[in] Has O=C1OC(c2ccccc2)C(c2ccccc2)=C1c1ccccc1 (stereo unspecified) a recorded growth inhibition greater than or equal to 80%?
[out] 1.0

[in] Has O=C1C=C(O)c2ccccc2C1=O.[Ag] a recorded growth inhibition greater than or equal to 80%?
[out] 1.0

[in] Has COc1ccc(C2c3cc4c(cc3OC(NNC(N)=O)C2C)OCO4)cc1 (stereo unspecified) a recorded growth inhibition greater than or equal to 80%?
[out] 1.0

[in] Has COc1ccc(/C=C/NC=O)cc1 a recorded growth inhibition greater than or equal to 80%?
[out] 0.0

[in] Has CN(CCN1C(=O)c2cccc3cccc(c23)C1=O)CCN1C(=O)c2cccc3cccc(c23)C1=O a recorded growth inhibition greater than or equal to 80%?
[out] 1.0

[in] Has C=C1CC2(CC(c3ccccc3C)OC(c3ccccc3C)C2)OC1=O (stereo unspecified) a recorded growth inhibition greater than or equal to 80%?
[out] 1.0

[in] Has CCCCCCCCCCCCCCCCOP(=O)(O)OP(=O)(O)OCC1OC(n2ccc(N)nc2=O)C(O)C1O (stereo unspecified) a recorded growth inhibition greater than or equal to 80%?
[out] 1.0

[in] Has CC[C@@]1(OC(=O)C(N)CCCCN)C(=O)OCc2c1cc1n(c2=O)Cc2cc3ccccc3nc2-1 (stereo partly specified) a recorded growth inhibition greater than or equal to 80%?
[out] 1.0

[in] Has N#CC(=C1C=CC(=NOC(=O)Nc2cccc3ccccc23)C=C1)c1ccccc1 a recorded growth inhibition greater than or equal to 80%?
[out] 1.0

[in] Has CCCCCCCCCCCCCCCCCCOCC(COP(=O)([O-])OCC[N+](C)(C)C)OC (stereo unspecified) a recorded growth inhibition greater than or equal to 80%?
[out] 0.0

[in] Has C=CCNC(=O)c1ccccc1SC(C)=O a recorded growth inhibition greater than or equal to 80%?
[out] 1.0
